# Lookup of reported pKd keyed by entry
# target or test system: Extracellular domain (ECD) of ROR1 fused to human Fc region (UniProt Q01973)
# Sequence (Q01973 30-406 limits assumed): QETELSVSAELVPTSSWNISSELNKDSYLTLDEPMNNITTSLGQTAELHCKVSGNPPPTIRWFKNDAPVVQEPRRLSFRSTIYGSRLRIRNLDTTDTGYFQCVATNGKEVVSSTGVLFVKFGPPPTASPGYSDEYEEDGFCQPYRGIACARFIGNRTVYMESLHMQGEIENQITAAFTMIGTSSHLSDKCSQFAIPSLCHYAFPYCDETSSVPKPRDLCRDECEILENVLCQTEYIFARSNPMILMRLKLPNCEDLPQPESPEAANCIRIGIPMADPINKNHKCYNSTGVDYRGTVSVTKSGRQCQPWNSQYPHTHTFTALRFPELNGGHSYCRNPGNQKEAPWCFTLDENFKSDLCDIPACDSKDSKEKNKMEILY
# assay procedure: SPR, Biacore 3000; ROR1 ECD-human Fc on CM5 chip, antibody in solution
Scale note: pKd = -log10(concentration in M).

Solved entries:
Hum_design_14_variant3 (antibody, V domains shown, Variable regions fused to mouse constant regions (chimeric mouse IgG1 mAb) for SPR; also called hROR1 VH_14-3 / hROR1 VL_14-3) VH: EVQLVESGGGLVQPGGSLRLSCAASGFTFSSYAMSWVRQAPGKGLEWVASISRGGTTYYADSVKGRFTISRDNSKNTLYLQMNSLRAEDTAVYYCGRYDYDGYYAMDYWGQGTLVTVSS VL: DIQMTQSPSSLSASVGDRVTITCKASPDINSYLNWYQQKPGKAPKLLIYRANRLVDGVPSRFSGSGSGTDFTLTISSLQPEDIATYYCLQYDEFPYTFGGGTKVEIK :: 8.89
Hum ROR1_05VH_(G4S)3x_VL_16 (antibody, mouse IgG1, V domains shown, The name reads as an scFv with a (G4S)3 linker; The method text says variable regions were fused to mouse constant regions (chimeric mouse IgG1); VH/VL are tied by the numbers in the name) VH: EVQLVESGGGLVQPGGSLRLSCAASGFTFSSYAMSWVRQAPGKGLEWVSSISRGGTTYYPDSVKGRFTISRDNSKNTLYLQMNSLRAEDTAVYYCGRYDYDGYYAMDYWGQGTLVTVSS VL: DIQMTQSPSSLSASVGDRVTITCKASPDINSYLNWYQQKPGKAPKVLIYRANRLVDGVPSRFSGSGSGTDYTLTISSLQPEDFATYYCLQYDEFPYTFGQGTKVEIK :: 9.47
Hum ROR1_18VH_(G4S)3x_VL_04 (antibody, mouse IgG1, V domains shown, The name reads as an scFv with a (G4S)3 linker; The method text says variable regions were fused to mouse constant regions (chimeric mouse IgG1); VH/VL are tied by the numbers in the name) VH: EVQLVESGGGLVQPGGSLRLSCSASGFTFSSYAMSWVRQVPGKGLVWISSISRGGTTYYADSVRGRFIISRDNAKNTLYLEMNNLRGEDTAVYYCARYDYDGYYAMDYWGQGTLVTVSS VL: DIQMTQSPSSLSASVGDRVTITCQASPDINSYLNWYQQKPGKAPKLLIYRANNLETGVPSRFSGSGSGTDFTLTISSLQPEDIATYYCLQYDEFPYTFGQGTKLEIK :: 9.43
Hum_design_14_variant4 (antibody, V domains shown, Variable regions fused to mouse constant regions (chimeric mouse IgG1 mAb) for SPR; also called hROR1 VH_14-4 / hROR1 VL_14-4) VH: EVQLVESGGGLVQPGGSLRLSCAASGFTFSSYAMSWVRQAPGKGLEWVASISRGGTTYYPDSVKGRFTISRDNVRNILYLQMSSLRSEDTAMYYCGRYDYDGYYAMDYWGQGTLVTVSS VL: DIQMTQSPSSLSASVGDRVTITCKASPDINSYLNWYQQKPGKAPKLLIYRANRLVDGVPSRFSGSGSGTDYTLTISSLQPEDFATYYCLQYDEFPYTFGAGTKVEIK :: 9.39

// next entry
For this binder ( Clone 14 (antibody, V domains shown, Variable regions fused to mouse constant regions (chimeric mouse IgG1 mAb) for SPR; also called hROR1 VH_14 / hROR1 VL_14) VH: EVQLVESGGGLVQPGGSLRLSCATSGFTFSSYAMSWMRQAPGKGLEWVASISRGGTTYYADSVKGRFTISVDKSKNTLYLQMNSLRAEDTAVYYCGRYDYDGYYAMDYWGQGTLVTVSS VL: DIQMTQSPSSLSASVGDRVTITCKASPDINSYLNWYQQKPGKAPKLLIYRANRLVDGVPSRFSGSGSGTDYTLTISSLQPEDFATYYCLQYDEFPYTFGAGTKVEIK ), measured pKd is 8.84
